# method_summary: Clearance in rat at 1 mg/kg, iv measured upto 24 hrs by LC-MS/MS analysis
# Assay type: ADME, organism-based
# assay_context: in vivo
recorded_endpoint: clearance (mL/min/kg)
# output: bare number, implied unit mL/min/kg

Dear colleague, I am looking for the recorded clearance of the following molecule: `CC1(N)CCN(c2cccnc2NC(=O)c2nc(-c3ncccc3C(F)(F)F)cnc2N)CC1`
24

###

# method_summary: Cmax in dog at 3 mg/kg, po measured upto 24 hrs by LC-MS/MS analysis
# Assay type: ADME, organism-based, Canis lupus familiaris
# assay_context: in vivo
recorded_endpoint: Cmax (µM)
Quick reminder: number only, in µM, skip the unit.

Name the recorded Cmax for CC1(N)CCN(c2cccnc2NC(=O)c2nc(-c3ncccc3C(F)(F)F)cnc2N)CC1 [DAROVASERTIB] .
6.12
